The reported measurements were obtained from paper PMC5278707.

# Test system: Candida guilliermondii ATCC 34134
# assay.notes: CLSI broth microdilution (M27-A3) MIC
# Type: cell-based
# assay.conditions: Meyerozyma guilliermondii, ATCC34134; 48 h, 50% reduction in growth
metric.name: MIC (µg/mL)
Value expressed in µg/mL; do not type the unit.

# return MIC of CCCCCOc1ccc(-c2ccc(-c3ccc(C(=O)N[C@H]4C[C@@H](O)[C@@H](NCC[N+](C)(C)C)NC(=O)[C@@H]5[C@@H](O)[C@@H](C)CN5C(=O)[C@H]([C@@H](C)O)NC(=O)[C@H]([C@H](O)[C@@H](O)c5ccc(O)cc5)NC(=O)[C@@H]5C[C@@H](O)CN5C(=O)[C@H]([C@@H](C)O)NC4=O)cc3)cc2)cc1 (system: Candida guilliermondii ATCC 34134)
1

====

Listed here: items and their measured half-life.
# assay.notes: single-dose pharmacokinetics in beagle dogs
# assay.conditions: male, beagle, dog, in vivo, iv, 1.4 mg/kg
Just the number plus its unit, please.

Note down half-life recorded for CCCCCOc1ccc(-c2ccc(-c3ccc(C(=O)N[C@H]4C[C@@H](O)[C@@H](NCCNCCO)NC(=O)[C@@H]5[C@@H](O)[C@@H](C)CN5C(=O)[C@H]([C@@H](C)O)NC(=O)[C@H]([C@H](O)[C@@H](O)c5ccc(O)cc5)NC(=O)[C@@H]5C[C@@H](O)CN5C(=O)[C@H]([C@@H](C)O)NC4=O)cc3)cc2)cc1 [Compound 5]
1260 min

Note down half-life recorded for CCCCCOc1ccc(-c2ccc(-c3ccc(C(=O)N[C@H]4C[C@@H](O)[C@@H](OCCOCCN)NC(=O)[C@@H]5[C@@H](O)[C@@H](C)CN5C(=O)[C@H]([C@@H](C)O)NC(=O)[C@H]([C@H](O)[C@@H](O)c5ccc(O)cc5)NC(=O)[C@@H]5C[C@@H](O)CN5C(=O)[C@H]([C@@H](C)O)NC4=O)cc3)cc2)cc1 [Compound 3]
2020 min

Note down half-life recorded for CCCCCOc1ccc(-c2ccc(-c3ccc(C(=O)N[C@H]4C[C@@H](O)[C@@H](NCC[N+](C)(C)C)NC(=O)[C@@H]5[C@@H](O)[C@@H](C)CN5C(=O)[C@H]([C@@H](C)O)NC(=O)[C@H]([C@H](O)[C@@H](O)c5ccc(O)cc5)NC(=O)[C@@H]5C[C@@H](O)CN5C(=O)[C@H]([C@@H](C)O)NC4=O)cc3)cc2)cc1 [Compound 6]
1660 min

Note down half-life recorded for CCCCCOc1ccc(-c2ccc(-c3ccc(C(=O)N[C@H]4C[C@@H](O)[C@@H](OCCOCCOC)NC(=O)[C@@H]5[C@@H](O)[C@@H](C)CN5C(=O)[C@H]([C@@H](C)O)NC(=O)[C@H]([C@H](O)[C@@H](O)c5ccc(O)cc5)NC(=O)[C@@H]5C[C@@H](O)CN5C(=O)[C@H]([C@@H](C)O)NC4=O)cc3)cc2)cc1 [Compound 2]
1130 min

Note down half-life recorded for CCCCCOc1ccc(-c2ccc(-c3ccc(C(=O)N[C@H]4C[C@@H](O)[C@@H](OCCOCCO)NC(=O)[C@@H]5[C@@H](O)[C@@H](C)CN5C(=O)[C@H]([C@@H](C)O)NC(=O)[C@H]([C@H](O)[C@@H](O)c5ccc(O)cc5)NC(=O)[C@@H]5C[C@@H](O)CN5C(=O)[C@H]([C@@H](C)O)NC4=O)cc3)cc2)cc1 [Compound 4]
1730 min

====

# Tested on: Candida albicans ATCC 90028
# assay.notes: CLSI broth microdilution (M27-A3) MIC
# Assay type: cell-based
# assay.conditions: ATCC90028, 24 h, 50% reduction in growth
# Description: All yeast and mold isolates were obtained from the American Type Culture Collection (ATCC). Isolates were plated on an agar medium to verify purity, and single colonies were picked. Aspergillus isolates were resubcultured on potato dextrose slants and incubated for 7 days at 35°C. Candida isolates were streaked on SDA plates and incubated for 24 h at 35°C. […] Plates were incubated at 35°C and were read from the bottom using a plate viewer after 24 and 48 h for Candida and after 48 h for Aspergillus. […]
*1 amine or outer side, *2 acyl side, *3 side chain or, on linkers, in order; H or OH if unused. Where a SMILES comes first, the peptide text is derived from it. Bridges are numbered along the chain shown (N, C = ends). [ ]: non-standard residue; d: D form. The star is where a group is joined. Orn(4R-OH,5R-OCH2CH2NMe3+) = C[N+](C)(C)CCO[C@@H](N[*:3])[C@H](O)C[C@H](N[*:1])C(=O)[*:2]; pTerphenylCO(4''-OnC5H11) = CCCCCOc1ccc(-c2ccc(-c3ccc(C(=O)*)cc3)cc2)cc1; hTyr(3S-OH,4S-OH) = N[C@H](C(=O)O)[C@H](O)[C@@H](O)c1ccc(O)cc1; Pro(3S-OH,4S-Me) = C[C@H]1CN[C@H](C(=O)O)[C@H]1O; Hyp = O=C(O)[C@@H]1C[C@@H](O)CN1
metric.name: MIC (µg/mL)
Value expressed in µg/mL; do not type the unit.

Reference set (2 entries):
Note down MIC recorded for CCCCCOc1ccc(-c2ccc(-c3ccc(C(=O)N[C@H]4C[C@@H](O)[C@@H](OCC[N+](C)(C)C)NC(=O)[C@@H]5[C@@H](O)[C@@H](C)CN5C(=O)[C@H]([C@@H](C)O)NC(=O)[C@H]([C@H](O)[C@@H](O)c5ccc(O)cc5)NC(=O)[C@@H]5C[C@@H](O)CN5C(=O)[C@H]([C@@H](C)O)NC4=O)cc3)cc2)cc1 [CD101] ({pTerphenylCO(4''-OnC5H11)}-[Orn(4R-OH,5R-OCH2CH2NMe3+)]T[Hyp][hTyr(3S-OH,4S-OH)]T[Pro(3S-OH,4S-Me)]; lactam 1-C)
0.03

Note down MIC recorded for CC[C@H](C)C[C@H](C)CCCCCCCCC(=O)N[C@H]1C[C@@H](O)[C@@H](NCCN)NC(=O)[C@@H]2[C@@H](O)CCN2C(=O)[C@H]([C@H](O)CCN)NC(=O)[C@H]([C@H](O)[C@@H](O)c2ccc(O)cc2)NC(=O)[C@@H]2C[C@@H](O)CN2C(=O)[C@H]([C@@H](C)O)NC1=O
0.06

Here's the next entry for you.
Note down MIC recorded for CCCCCOc1ccc(-c2ccc(-c3ccc(C(=O)N[C@H]4C[C@@H](O)[C@@H](NCC[N+](C)(C)C)NC(=O)[C@@H]5[C@@H](O)[C@@H](C)CN5C(=O)[C@H]([C@@H](C)O)NC(=O)[C@H]([C@H](O)[C@@H](O)c5ccc(O)cc5)NC(=O)[C@@H]5C[C@@H](O)CN5C(=O)[C@H]([C@@H](C)O)NC4=O)cc3)cc2)cc1
0.03

====

# assay.notes: single-dose pharmacokinetics in beagle dogs
# assay.conditions: male, dog, in vivo, iv; beagle dogs, single i.v. 1.4 mg/kg, 10-min slow bolus
*1 amine or outer side, *2 acyl side, *3 side chain or, on linkers, in order; H or OH if unused. Where a SMILES comes first, the peptide text is derived from it. Bridges are numbered along the chain shown (N, C = ends). [ ]: non-standard residue; d: D form. The star is where a group is joined. Orn(4R-OH,5R-OCH2CH2NMe3+) = C[N+](C)(C)CCO[C@@H](N[*:3])[C@H](O)C[C@H](N[*:1])C(=O)[*:2]; pTerphenylCO(4''-OnC5H11) = CCCCCOc1ccc(-c2ccc(-c3ccc(C(=O)*)cc3)cc2)cc1; Orn(4R-OH,5R-OH) = O=C([C@H](C[C@@H](O)[C@@H](O)N[*:3])N[*:1])[*:2]; hTyr(3S-OH,4S-OH) = N[C@H](C(=O)O)[C@H](O)[C@@H](O)c1ccc(O)cc1; Pro(3S-OH,4S-Me) = C[C@H]1CN[C@H](C(=O)O)[C@H]1O; Hyp = O=C(O)[C@@H]1C[C@@H](O)CN1
Listed here: items and their measured clearance.
Value expressed in L/h/kg; do not type the unit.

Note down clearance recorded for CCCCCOc1ccc(-c2ccc(-c3ccc(C(=O)N[C@H]4C[C@@H](O)[C@@H](OCC[N+](C)(C)C)NC(=O)[C@@H]5[C@@H](O)[C@@H](C)CN5C(=O)[C@H]([C@@H](C)O)NC(=O)[C@H]([C@H](O)[C@@H](O)c5ccc(O)cc5)NC(=O)[C@@H]5C[C@@H](O)CN5C(=O)[C@H]([C@@H](C)O)NC4=O)cc3)cc2)cc1 [CD101] ({pTerphenylCO(4''-OnC5H11)}-[Orn(4R-OH,5R-OCH2CH2NMe3+)]T[Hyp][hTyr(3S-OH,4S-OH)]T[Pro(3S-OH,4S-Me)]; lactam 1-C)
0.019

Here's the next entry for you.
Note down clearance recorded for CCCCCOc1ccc(-c2ccc(-c3ccc(C(=O)N[C@H]4C[C@@H](O)[C@@H](O)NC(=O)[C@@H]5[C@@H](O)[C@@H](C)CN5C(=O)[C@H]([C@@H](C)O)NC(=O)[C@H]([C@H](O)[C@@H](O)c5ccc(O)cc5)NC(=O)[C@@H]5C[C@@H](O)CN5C(=O)[C@H]([C@@H](C)O)NC4=O)cc3)cc2)cc1 [Anidulafungin, anidulafungin] ({pTerphenylCO(4''-OnC5H11)}-[Orn(4R-OH,5R-OH)]T[Hyp][hTyr(3S-OH,4S-OH)]T[Pro(3S-OH,4S-Me)]; lactam 1-C)
0.047
